Hey, just so you know, these numbers are from patent US8461328B2.

Each entry below carries its reported Ki.
SYSTEM TESTED: JAK3 (Homo sapiens, UniProt P52333)
Construct: made in house; host or cells: SF9 insect cells (baculovirus)
Sequence (P52333 783-1124): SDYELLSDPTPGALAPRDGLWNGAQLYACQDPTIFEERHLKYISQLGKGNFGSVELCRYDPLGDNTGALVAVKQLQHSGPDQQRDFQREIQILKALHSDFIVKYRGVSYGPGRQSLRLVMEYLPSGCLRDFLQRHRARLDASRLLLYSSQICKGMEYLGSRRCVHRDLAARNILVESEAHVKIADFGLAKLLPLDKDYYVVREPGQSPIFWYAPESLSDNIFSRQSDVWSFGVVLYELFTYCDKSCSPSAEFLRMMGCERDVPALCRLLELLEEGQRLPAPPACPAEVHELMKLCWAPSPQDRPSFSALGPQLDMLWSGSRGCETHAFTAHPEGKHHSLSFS
PROCEDURE TEXT: JAK3 inhibition (Table 4)
Type: biochemical
ASSAY CONDITIONS: read-out: JAK3 Ki
TEST READOUT: Ki (nM)

| COMPOUND | TEST READOUT | VALUE MEASURED |
| --- | --- | --- |
| CS(=O)(=O)CCN1CCC(n2cnc3cnc4[nH]ccc4c32)CC1 | Ki | 27.7 |
| CCOC(=O)N1CC[C@H](n2c([C@@H](C)O)nc3cnc4[nH]ccc4c32)C1 | Ki | 904 |
| Cc1cc(CN2CCC(n3c(C(C)O)nc4cnc5[nH]ccc5c43)C(F)C2)on1 (stereo not drawn) | Ki | 3.34 |
| O=S(=O)(C1CC1)N1CCC(n2cnc3cnc4[nH]ccc4c32)CC1 | Ki | 93.3 |
| N#Cc1cccc(CN[C@H]2CC[C@H](n3cnc4cnc5[nH]ccc5c43)CC2)c1 | Ki | 89 |
| N#Cc1cc(CN2CCC(n3cnc4cnc5[nH]ccc5c43)CC2)ccn1 | Ki | 59.6 |
| OC[C@@H](O)c1nc2cnc3[nH]ccc3c2n1C1CCCCC1 | Ki | 16.1 |
| CC(C)NC(=O)Cc1nc2cnc3[nH]ccc3c2n1C1CCN(Cc2ccccc2)CC1 | Ki | 11.6 |
| N#CC1(C(=O)N2CCC[C@@H](n3cnc4cnc5[nH]ccc5c43)C2)CCC1 | Ki | 9.24 |
| N#Cc1cccc(CNC2CC(n3cnc4cnc5[nH]ccc5c43)C2)c1 (stereo not drawn) | Ki | 173 |
| COCCN(C)C(=O)NC1CCC(n2cnc3cnc4[nH]ccc4c32)CC1 (stereo not drawn) | Ki | 278 |
| CN(C)CCOC(=O)N[C@H]1CC[C@H](n2cnc3cnc4[nH]ccc4c32)CC1 | Ki | 434 |
| c1cncc(CN2CCCC(n3cnc4cnc5[nH]ccc5c43)CC2)c1 (racemic) | Ki | 37.1 |
| COC(=O)N[C@H]1CC[C@H](n2c(CO)nc3cnc4[nH]ccc4c32)CC1 | Ki | 172 |
| OC1CCCC(n2nnc3cnc4[nH]ccc4c32)C1 (single isomer, unassigned) [Example 553] | Ki | 42.5 |
| COCC(=O)N1CCC(n2cnc3cnc4[nH]ccc4c32)CC1 | Ki | 401 |
| CC(=O)NCCc1nc2cnc3[nH]ccc3c2n1[C@H]1CCCOC1 | Ki | 276 |
| CN(CC(F)(F)F)C(=O)NC1CCC(n2cnc3cnc4[nH]ccc4c32)CC1 (stereo not drawn) | Ki | 37.1 |
| COC1CCCC(n2c(C)nc3cnc4[nH]ccc4c32)C1 (stereo not drawn) | Ki | 335 |
| C[C@@H](O)c1nc2cnc3[nH]ccc3c2n1[C@@H]1CCCN(C(=O)Cn2ccnc2)C1 | Ki | 897 |
| COC[C@H]1CC[C@H](n2c([C@@H](C)O)nc3cnc4[nH]ccc4c32)CC1 | Ki | 37 |
| CCN1CC[C@@H](n2c(C)nc3cnc4[nH]ccc4c32)[C@@H](F)C1 | Ki | 25.4 |
| O=S(=O)(Cc1ccccc1)N1CCC(n2cnc3cnc4[nH]ccc4c32)CC1 | Ki | 32.6 |
| C[C@@H](O)c1nc2cnc3[nH]ccc3c2n1[C@H]1CC[C@H](NCCC#N)CC1 | Ki | 137 |
| N#CCC(=O)N1CCC(F)C(n2nnc3cnc4[nH]ccc4c32)C1 (racemic) | Ki | 33 |
| c1cc2c(ncc3ncn([C@H]4CCCNC4)c32)[nH]1 | Ki | 171 |
| O=C1CC(n2cnc3cnc4[nH]ccc4c32)CCN1Cc1ccccc1 (racemic) | Ki | 535 |
